Origin of measurements: PubChem BioAssay (NCI)

System: SK-MEL-5 melanoma
Experiment: NCI tumour cell line growth inhibition, 48 h
readoutLabel: GI50

What does the data say about its GI50? Entry: `C=CC(=O)N1CCN(CCCn2c(=O)c(-c3c(Cl)c(OC)cc(OC)c3Cl)cc3cnc(NC)nc32)CC1` 1.65 µM

Do the same for `O=C1/C(=C/c2ccccc2)CN(C(=O)CCN2CCC(=NO)CC2)C/C1=C\c1ccccc1` please 1.64 µM

Do the same for `OCCCCC#Cc1ccccc1C#Cc1ccccn1` please 19.1 µM

Do the same for `COc1ccc2cc(C#Cc3ccc(-n4c(/C=C/c5cc(OC)c(OC)c(OC)c5)nc5ccccc5c4=O)c(C)c3)ccc2c1` please 1.85 µM

Do the same for c1cc[n+](C2c3ccccc3C([n+]3ccccc3)c3ccccc32)cc1 (stereo not given) please 7.91 µM

Do the same for `O=c1cc(-c2ccc3ccccc3c2)[nH]c2ncc(Cl)cc12` please 2.98 µM

Do the same for `O=C(Nc1ncc(Cc2ccccc2)s1)c1sc2ccccc2c1Cl` please 0.0634 µM

Do the same for `C1C[OH+]CC[OH+]CC[OH+]CC[OH+]CC[OH+]CC[OH+]1.[Cl-].[V]` please 4.76 µM

Do the same for `CC[N+](CC)=c1cc2oc3cc(N(C)C)ccc3nc-2cc1C` please 1.04 µM

Do the same for `COc1cccc2[nH]c3c4c(c5c(c3c12)C(=O)N(CN1CCN(C)CC1)C5=O)CCC4` please 8.26 µM

Do the same for `O=C(Cc1n[nH]c(=O)c2ccccc12)OCc1c(Cl)cccc1Cl` please 4.18 µM

Do the same for `ClCc1ccccc1Cn1cnc2c(Cl)nc(Cl)nc21` please 0.104 µM

Do the same for `CCCC[C@H](NC(=O)[C@H]1CCCCN1C)C(=O)N(C)[C@H](C[C@@H](OC(C)=O)c1nc(C(=O)N[C@@H](Cc2ccccc2)C[C@H](C)C(=O)OCC)cs1)C(C)C` please < 0.00333 µM

Do the same for `Nc1ccc(S(=O)(=O)c2ccc(N)cc2)cc1` please > 100 µM

Do the same for `CSc1nc(-c2cc3ccccc3o2)cc(-c2ccc(Cl)cc2)c1C#N` please > 100 µM
